// values below are reported %Inh
Test system: PLK1;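 further: KINOMEscan kinase panel screen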
Details: concentration: 1 μM, replicates: in singlicate; n = 1
attribute measured: %Inh (%)

[
  {
    "compound": "CC(C)NCC(Cc1ccccc1)NC(=O)c1cc(Br)c(-c2ccnc3[nH]ccc23)s1.Cl.Cl (centres unmarked)",
    "unit info": "%",
    "value": 0
  },
  {
    "compound": "COc1cccc(C2=C(Nc3cccc(O)c3)C(=O)NC2=O)c1",
    "unit info": "%",
    "value": 0
  },
  {
    "compound": "Cc1ccc(NC(=O)c2ccc(Cl)c(Cl)c2)cc1-c1ccc(C(=O)Nc2ccncc2)cc1",
    "unit info": "%",
    "value": 0
  },
  {
    "compound": "COc1cccc(CC(=O)N2CCc3cc(-c4cn(C)c5ncnc(N)c45)ccc32)c1",
    "unit info": "%",
    "value": 9
  },
  {
    "compound": "N#CC1(c2cccc(C(=O)Nc3cccc(Oc4ccc5nc(NC(=O)C6CC6)sc5n4)c3)c2)CC1",
    "unit info": "%",
    "value": 13
  },
  {
    "compound": "CNc1nccc(-c2ccc3c(N)n[nH]c3c2)n1",
    "unit info": "%",
    "value": 6
  },
  {
    "compound": "Cn1cc(-c2cnc(N)c3c(-c4ccc5c(c4)CCN5C(=O)Cc4ccccc4)csc23)cn1",
    "unit info": "%",
    "value": 0
  },
  {
    "compound": "CN(c1ccc(NC(=O)Nc2cccc(Cl)c2)cc1)c1ccnc(N)n1.Cl",
    "unit info": "%",
    "value": 26
  }
]
